SYSTEM UNDER TEST: GST A1-1 (Homo sapiens, UniProt P08263)
Sequence (P08263 whole entry): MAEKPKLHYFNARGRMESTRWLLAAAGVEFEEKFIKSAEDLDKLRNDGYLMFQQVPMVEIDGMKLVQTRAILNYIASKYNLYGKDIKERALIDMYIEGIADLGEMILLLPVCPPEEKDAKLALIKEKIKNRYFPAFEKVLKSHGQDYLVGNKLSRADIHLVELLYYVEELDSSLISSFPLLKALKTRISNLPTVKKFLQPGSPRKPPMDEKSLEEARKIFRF
METHOD SUMMARY: inhibition of GST isoenzyme A1-1 (Ki)
Assay type: biochemical
MEASURED ENDPOINT: pKi
For clarity, pKi is expressed as the negative log10 of concentration in mol/L.

// recorded pKi for `CCCCCCCCSC[C@H](NC(=O)CC[C@H](N)C(=O)OCC)C(=O)NCC(=O)OCC` : 6.57

* * *

SYSTEM UNDER TEST: GST M1a-1a (Homo sapiens, UniProt P09488)
Sequence (P09488 whole entry): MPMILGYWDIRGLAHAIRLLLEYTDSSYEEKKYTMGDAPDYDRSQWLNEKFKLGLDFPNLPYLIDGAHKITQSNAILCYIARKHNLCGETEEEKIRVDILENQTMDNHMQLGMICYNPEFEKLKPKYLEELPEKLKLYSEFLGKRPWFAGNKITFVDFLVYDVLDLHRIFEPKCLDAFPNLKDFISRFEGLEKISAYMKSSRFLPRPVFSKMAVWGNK
METHOD SUMMARY: inhibition of GST isoenzyme M1a-1a (Ki)
Format: biochemical
MEASURED ENDPOINT: Ki (µM)
Your answer is read as µM, so omit the unit and give the number.

// recorded Ki for CCCCCCCCSC[C@H](NC(=O)CC[C@H](N)C(=O)OCC)C(=O)NCC(=O)OCC [TER143, γE-C(octyl)-G] : 1.2

* * *

SYSTEM UNDER TEST: Human GST P1-1 (Homo sapiens, UniProt P09211)
Sequence (P09211 2-210 limits assumed): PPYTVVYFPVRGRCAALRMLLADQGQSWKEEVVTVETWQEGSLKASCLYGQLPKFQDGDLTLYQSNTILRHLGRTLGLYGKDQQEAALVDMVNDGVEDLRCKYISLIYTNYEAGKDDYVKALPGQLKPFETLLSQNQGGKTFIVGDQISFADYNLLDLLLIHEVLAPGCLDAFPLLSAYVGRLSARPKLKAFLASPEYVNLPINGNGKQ
METHOD SUMMARY: inhibition of GST isoenzyme P1-1 (Ki)
Format: biochemical
MEASURED ENDPOINT: pKi
For clarity, pKi is expressed as the negative log10 of concentration in mol/L.

// recorded pKi for CCCCCCCCSC[C@H](NC(=O)CC[C@H](N)C(=O)OCC)C(=O)NCC(=O)OCC [TER143, γE-C(octyl)-G] : 5.72

* * *

SYSTEM UNDER TEST: UniProt:P09488
METHOD SUMMARY: inhibition of GST isoenzyme M1a-1a (Ki)
Format: biochemical
COND: determined on unesterified form
*1 amine or outer side, *2 acyl side, *3 side chain or, on linkers, in order; H or OH if unused. Where a SMILES comes first, the peptide text is derived from it. [ ]: non-standard residue; d: D form. The star is where a group is joined. γGlu = O=C(O)[C@H](CCC(=O)[*:2])N[*:1]; dPhg = N[C@@H](C(=O)O)c1ccccc1; Bn = c1ccc(C*)cc1
MEASURED ENDPOINT: Ki (µM)
Your answer is read as µM, so omit the unit and give the number.

// recorded Ki for N[C@@H](CCC(=O)N[C@@H](CSCc1ccccc1)C(=O)N[C@@H](C(=O)O)c1ccccc1)C(=O)O [TER117, γE-C(Bz)-ϕG] (γGlu-Cys(Bn)-[dPhg]-OH) : 25

* * *

SYSTEM UNDER TEST: Human GST P1-1 (Homo sapiens, UniProt P09211)
METHOD SUMMARY: inhibition of GST isoenzyme P1-1 (Ki)
Assay type: biochemical
COND: determined on unesterified form
*1 amine or outer side, *2 acyl side, *3 side chain or, on linkers, in order; H or OH if unused. Where a SMILES comes first, the peptide text is derived from it. [ ]: non-standard residue; d: D form. The star is where a group is joined. γGlu = O=C(O)[C@H](CCC(=O)[*:2])N[*:1]; dPhg = N[C@@H](C(=O)O)c1ccccc1; Bn = c1ccc(C*)cc1
MEASURED ENDPOINT: Ki

// recorded Ki for N[C@@H](CCC(=O)N[C@@H](CSCc1ccccc1)C(=O)N[C@@H](C(=O)O)c1ccccc1)C(=O)O [TER117, γE-C(Bz)-ϕG] (γGlu-Cys(Bn)-[dPhg]-OH) : 0.4 µM
